# experimental-conditions: siRNA; note: test system not given here
HELM strings list units from the 5' end as sugar, base in round brackets, then linkage (d deoxyribose, r ribose, m 2'-O-methyl, p phosphodiester). Strings are as the collection lists them, not checked against the first reports. ss, as = sense and antisense strand; [lna] = locked nucleic acid (LNA); [una] = unlocked nucleic acid; [s4r] = 4'-thioribose
Criterion: target mRNA knockdown strictly under 30%. Met: 1. Not met: -1.

Is the reported target mRNA knockdown for RNA1{r(U)p.m(U)p.m(G)p.r(G)p.r(G)p.r(G)p.m(A)p.m(A)p.r(G)p.r(C)p.r(G)p.r(G)p.r(C)p.r(C)p.r(G)p.r(G)p.r(C)p.r(G)p.r(G)p.r(T)p.r(T)}|RNA2{r(C)p.r(C)p.r(G)p.r(C)p.r(C)p.r(G)p.r(G)p.r(C)p.r(C)p.r(G)p.r(C)p.r(U)p.r(U)p.r(C)p.r(C)p.r(C)p.m(C)p.r(A)p.r(A)p.r(T)p.r(T)}$$$RNA1{StrandType:ss}|RNA2{StrandType:as}$ strictly below 30%?
-1

Identify whether the substance RNA1{r(A)p.r(C)p.r(G)p.r(U)p.m(C)p.r(A)p.r(C)p.r(C)p.r(G)p.r(A)p.r(G)p.r(G)p.r(A)p.r(G)p.r(A)p.r(A)p.r(G)p.m(U)p.r(A)p.r(T)p.r(T)}|RNA2{r(U)p.r(A)p.r(C)p.r(U)p.r(U)p.r(C)p.r(U)p.r(C)p.r(C)p.r(U)p.r(C)p.r(G)p.r(G)p.m(U)p.r(G)p.r(A)p.r(C)p.r(G)p.r(U)p.r(T)p.r(T)}$$$RNA1{StrandType:ss}|RNA2{StrandType:as}$ records target mRNA knockdown below 30%.
-1

Does this substance meet the criterion target mRNA knockdown < 30%? RNA1{r(A)p.r(C)p.r(C)p.r(U)p.m(U)p.r(A)p.r(A)p.r(G)p.r(G)p.r(A)p.r(C)p.r(C)p.r(A)p.r(C)p.r(C)p.r(G)p.r(G)p.r(A)p.r(U)p.r(T)p.r(T)}|RNA2{r(A)p.r(U)p.r(C)p.r(C)p.r(G)p.r(G)p.r(U)p.r(G)p.r(G)p.r(U)p.r(C)p.r(C)p.r(U)p.m(U)p.r(A)p.r(A)p.r(G)p.r(G)p.r(U)p.r(T)p.r(T)}$$$RNA1{StrandType:ss}|RNA2{StrandType:as}$
-1

# check: target mRNA knockdown < 30% for RNA1{m(U)p.r(A)p.m(A)p.r(A)p.m(G)p.r(C)p.m(U)p.r(G)p.m(G)p.r(A)p.m(A)p.r(A)p.m(G)p.r(G)p.m(G)p.r(A)p.m(C)p.r(G)p.m(G)p.r(T)p.r(T)}|RNA2{r(C)p.r(C)p.r(G)p.r(U)p.r(C)p.r(C)p.r(C)p.r(U)p.r(U)p.r(U)p.r(C)p.r(C)p.m(A)p.r(G)p.r(C)p.r(U)p.r(U)p.r(U)p.m(A)p.r(T)p.r(T)}$$$RNA1{StrandType:ss}|RNA2{StrandType:as}$
1

Is target mRNA knockdown of RNA1{r(G)p.r(G)p.r(A)p.r(C)p.r(A)p.r(U)p.r(U)p.r(C)p.r(A)p.r(G)p.r(A)p.r(A)p.r(C)p.r(A)p.r(A)p.r(G)p.r(A)p.r(A)p.r(A)p.[una](U)p.[una](U)}|RNA2{[una](U)p.r(U)p.r(U)p.r(C)p.r(U)p.r(U)p.r(G)p.r(U)p.r(U)p.r(C)p.r(U)p.r(G)p.r(A)p.r(A)p.r(U)p.r(G)p.r(U)p.r(C)p.r(C)p.[una](U)p.[una](U)}$$$RNA1{StrandType:ss}|RNA2{StrandType:as}$ strictly below 30%?
-1

I wonder whether RNA1{r(C)p.r(G)p.r(U)p.r(A)p.r(C)p.r(G)p.r(C)p.r(G)p.r(G)p.r(A)p.r(A)p.r(U)p.r(A)p.r(C)p.r(U)p.r(U)p.r(C)p.r(G)p.r(A)p.r(T)p.r(T)}|RNA2{[s4r](U)p.[s4r](C)p.r(G)p.r(A)p.r(A)p.r(G)p.r(U)p.r(A)p.r(U)p.r(U)p.r(C)p.r(C)p.r(G)p.r(C)p.r(G)p.r(U)p.r(A)p.[s4r](C)p.[s4r](G)p.r(T)p.r(T)}$$$RNA1{StrandType:ss}|RNA2{StrandType:as}$ has target mRNA knockdown below 30%. Can you tell?
-1

For this substance, is target mRNA knockdown lower than 30%? RNA1{r(A)p.r(U)p.r(C)p.r(U)p.r(G)p.r(A)p.r(A)p.r(G)p.r(A)p.r(A)p.r(G)p.r(G)p.r(A)p.r(G)p.r(A)p.r(A)p.r(A)p.r(A)p.r(A)p.r(T)p.r(T)}|RNA2{[lna](T)p.r(U)p.r(U)p.r(U)p.r(U)p.r(C)p.r(U)p.r(C)p.r(C)p.r(U)p.r(U)p.r(C)p.r(U)p.r(U)p.r(C)p.r(A)p.r(G)p.r(A)p.r(U)p.[lna](T)p.[lna](T)}$$$RNA1{StrandType:ss}|RNA2{StrandType:as}$
1

Please determine if RNA1{[s4r](C)p.[s4r](G)p.r(U)p.r(A)p.r(C)p.r(G)p.r(C)p.r(G)p.r(G)p.r(A)p.r(A)p.r(U)p.r(A)p.r(C)p.r(U)p.r(U)p.r(C)p.[s4r](G)p.[s4r](A)p.r(T)p.r(T)}|RNA2{r(U)p.r(C)p.r(G)p.r(A)p.r(A)p.r(G)p.r(U)p.r(A)p.r(U)p.r(U)p.r(C)p.r(C)p.r(G)p.r(C)p.r(G)p.r(U)p.r(A)p.[s4r](C)p.[s4r](G)p.r(T)p.r(T)}$$$RNA1{StrandType:ss}|RNA2{StrandType:as}$ is below 30% in terms of target mRNA knockdown.
-1

# TODO verify target mRNA knockdown < 30% strictly for this substance: RNA1{m(G)p.r(A)p.m(A)p.r(U)p.m(A)p.r(A)p.m(C)p.r(C)p.m(U)p.r(G)p.m(A)p.r(A)p.m(C)p.r(G)p.m(U)p.r(C)p.m(A)p.r(C)p.m(C)p.r(T)p.r(T)}|RNA2{r(G)p.r(G)p.r(U)p.r(G)p.r(A)p.r(C)p.r(G)p.r(U)p.r(U)p.r(C)p.r(A)p.r(G)p.r(G)p.r(U)p.r(U)p.r(A)p.r(U)p.r(U)p.r(C)p.r(T)p.r(T)}$$$RNA1{StrandType:ss}|RNA2{StrandType:as}$
1
